Experiment: small-molecule binders of probe aNOTCH2, primary screen, biochemical, small-molecule microarray, 635/667 nm fluorescence (AID 1121);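 also: score merges feature fluorescence read at 667 nm with its signal to noise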
Details: higher = more signal
measurement-kind: composite z-score
Give bare numbers.

Examples with answers:
compound=CCCCc1nc2c(c3c1C[C@H](C)OC3)CN(CCOc1ccccc1)CC2 observed=-0.11
compound="COC(=O)[C@H](C)NC(=O)CCC1CC(OC(=O)NCCc2ccc(F)cc2)CC2(CCCC(COC(=O)NCc3cccc(C(F)(F)F)c3)O2)O1 (stereo partly drawn)" observed=-0.0652
compound=CON=C[C@@H](NS(=O)(=O)c1ccc(C)cc1)[C@H](C)C=CCC(=O)OC observed=-0.14
compound=CC(C)(C)N1C(=O)[C@H]2[C@H]3[C@H](O)C=CC(=O)[C@@H]3CC[C@H]2C1=O observed=0.0098
compound=CO[C@H]1COC(=O)CC=C[C@@H](C)[C@H](NS(=O)(=O)c2ccc(C)cc2)COC(=O)CCC[C@@H]1C observed=-0.11
compound="CCOC(=O)[C@H](CC(C)C)NC(=O)CCC1CC(OC(=O)NCc2cccc3ccccc23)CC2(CCCC(COC(=O)NCCOc3ccccc3)O2)O1 (stereo partly drawn)" observed=0.0174
compound=C[C@@H]1C=CCC(=O)OC[C@H]2O[C@@H](C=C[C@@H]2O)[C@H](C)C=CCC(=O)OC1 observed=-0.0903

Now let's try a different one.
Exam item: // lookup composite z-score for CO[C@@H]1COC(=O)CC=C[C@H](C)[C@H](OC)COC(=O)[C@H](C)NC(=O)CC=C[C@H]1C
Marked response: -0.118
